assaySystem: ALK (Homo sapiens)
Sequence (Q9UM73 19-1620, species assumed): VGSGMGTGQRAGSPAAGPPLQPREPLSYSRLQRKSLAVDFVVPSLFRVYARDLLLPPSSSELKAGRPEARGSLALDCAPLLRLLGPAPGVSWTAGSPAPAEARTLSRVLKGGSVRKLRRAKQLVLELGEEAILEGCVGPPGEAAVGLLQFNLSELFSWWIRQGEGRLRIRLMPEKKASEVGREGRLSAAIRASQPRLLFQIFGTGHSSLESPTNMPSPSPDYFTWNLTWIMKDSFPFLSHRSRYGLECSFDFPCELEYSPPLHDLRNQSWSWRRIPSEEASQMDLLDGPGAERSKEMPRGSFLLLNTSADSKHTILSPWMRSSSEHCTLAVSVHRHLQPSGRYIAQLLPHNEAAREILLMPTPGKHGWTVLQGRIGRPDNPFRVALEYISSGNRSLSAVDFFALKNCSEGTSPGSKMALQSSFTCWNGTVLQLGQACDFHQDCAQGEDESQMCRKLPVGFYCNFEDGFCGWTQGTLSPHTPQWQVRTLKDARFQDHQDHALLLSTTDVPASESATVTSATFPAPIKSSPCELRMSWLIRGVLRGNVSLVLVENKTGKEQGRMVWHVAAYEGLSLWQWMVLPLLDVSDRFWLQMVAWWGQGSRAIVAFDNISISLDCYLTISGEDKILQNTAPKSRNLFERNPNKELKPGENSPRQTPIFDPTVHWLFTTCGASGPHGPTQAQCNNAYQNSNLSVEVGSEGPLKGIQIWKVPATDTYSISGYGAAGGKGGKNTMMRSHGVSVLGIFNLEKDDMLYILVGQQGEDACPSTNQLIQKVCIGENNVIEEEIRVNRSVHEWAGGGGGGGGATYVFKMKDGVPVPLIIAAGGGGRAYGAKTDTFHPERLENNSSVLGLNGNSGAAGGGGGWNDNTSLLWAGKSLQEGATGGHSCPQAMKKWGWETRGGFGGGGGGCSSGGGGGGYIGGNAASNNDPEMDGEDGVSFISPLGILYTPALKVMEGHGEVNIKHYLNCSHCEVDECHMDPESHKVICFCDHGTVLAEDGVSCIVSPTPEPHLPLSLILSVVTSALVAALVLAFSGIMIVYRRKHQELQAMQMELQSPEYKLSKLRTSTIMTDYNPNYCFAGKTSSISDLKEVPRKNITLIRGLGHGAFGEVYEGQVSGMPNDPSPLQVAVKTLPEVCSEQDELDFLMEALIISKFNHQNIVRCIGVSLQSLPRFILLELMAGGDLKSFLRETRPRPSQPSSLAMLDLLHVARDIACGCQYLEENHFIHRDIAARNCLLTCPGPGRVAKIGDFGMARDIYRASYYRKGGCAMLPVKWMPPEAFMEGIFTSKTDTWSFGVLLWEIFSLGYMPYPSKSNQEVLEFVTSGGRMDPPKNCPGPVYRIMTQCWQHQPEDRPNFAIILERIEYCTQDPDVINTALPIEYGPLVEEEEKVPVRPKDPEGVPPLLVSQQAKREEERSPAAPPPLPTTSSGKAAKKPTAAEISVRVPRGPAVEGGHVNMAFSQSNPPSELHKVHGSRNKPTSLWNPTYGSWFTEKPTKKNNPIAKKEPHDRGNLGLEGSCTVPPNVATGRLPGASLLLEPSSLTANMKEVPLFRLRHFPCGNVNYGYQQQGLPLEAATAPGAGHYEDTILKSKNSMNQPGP

{"columns": ["compound", "IC50"],
 "data": [
  ["CCN1CCC(Nc2ccc3c(c2)/C(=C(/c2nc(C)c[nH]2)c2ccc(Cl)cc2F)C(=O)N3)CC1 [Entry 118]", "< 50 nM"],
  ["CCN1CCC(Nc2ccc3c(c2)/C(=C(\\c2cc(F)cc(F)c2)c2nc(C)c[nH]2)C(=O)N3)CC1 [Entry 74]", "50 to 500 nM"],
  ["CCN1CCC(Nc2ccc3c(c2)/C(=C(\\c2ccc(C)c(F)c2)c2nc(C)c[nH]2)C(=O)N3)CC1 [Entry 67]", "< 50 nM"],
  ["CCN1CCC(Nc2ccc3c(c2)/C(=C(/c2nc(C)c[nH]2)c2cccc(F)c2F)C(=O)N3)CC1 [Entry 110]", "< 50 nM"],
  ["CCN1CCC(Nc2ccc3c(c2)/C(=C(\\c2ccc(C)cc2)c2nc(C)c[nH]2)C(=O)N3)CC1 [Entry 64]", "< 50 nM"],
  ["CCN1CCC(Nc2ccc3c(c2)/C(=C(\\c2ccc(C)c(F)c2)c2ncc[nH]2)C(=O)N3)CC1 [Entry 57]", "50 to 500 nM"]
]}

---

molecules and their reported pIC50
assaySystem: Fyn (Homo sapiens)
Sequence (P06241 whole entry, species assumed): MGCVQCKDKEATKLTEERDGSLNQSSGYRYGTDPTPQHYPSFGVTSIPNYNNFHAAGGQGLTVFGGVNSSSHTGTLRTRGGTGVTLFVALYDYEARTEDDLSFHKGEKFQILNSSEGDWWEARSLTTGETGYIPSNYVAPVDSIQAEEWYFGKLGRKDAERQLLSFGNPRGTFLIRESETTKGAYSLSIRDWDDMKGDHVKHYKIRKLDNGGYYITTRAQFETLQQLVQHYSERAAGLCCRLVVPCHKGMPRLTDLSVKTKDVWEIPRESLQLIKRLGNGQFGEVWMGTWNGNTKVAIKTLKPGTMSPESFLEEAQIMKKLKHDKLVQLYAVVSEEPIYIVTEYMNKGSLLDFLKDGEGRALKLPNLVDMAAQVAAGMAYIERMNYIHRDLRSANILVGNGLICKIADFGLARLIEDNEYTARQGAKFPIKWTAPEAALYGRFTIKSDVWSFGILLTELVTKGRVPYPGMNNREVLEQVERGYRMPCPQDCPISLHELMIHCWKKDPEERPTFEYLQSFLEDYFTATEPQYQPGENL
measurementProtocol: Kinase assay, Fyn
Type: biochemical
pIC50: −log10 of the molar value.

{"columns": ["smilesCode", "pIC50"],
 "data": [
  ["COCCN1CCC(Nc2ccc3c(c2)/C(=C(\\c2cc(F)cc(F)c2)c2nc(C)c[nH]2)C(=O)N3)CC1", "> 7.30"],
  ["CCN1CCC(Nc2ccc3c(c2)/C(=C(\\c2cccc(OC)c2)c2nc4ccccc4[nH]2)C(=O)N3)CC1", "> 7.30"],
  ["CCN1CCC(Nc2ccc3c(c2)/C(=C(\\c2cccc([N+](=O)[O-])c2)c2nc4ccccc4[nH]2)C(=O)N3)CC1", "6.30 to 7.30"],
  ["CCN1CCC(Nc2ccc3c(c2)/C(=C(\\c2ccc(C)cc2)c2nc4cc(OC)ccc4[nH]2)C(=O)N3)CC1", "> 7.30"],
  ["COCCN1CCC(Nc2ccc3c(c2)/C(=C(\\c2cccc(F)c2)c2ncc[nH]2)C(=O)N3)CC1", "> 7.30"],
  ["CCN1CCC(Oc2ccc3c(c2)/C(=C(\\c2ccccc2)c2nc4cc(OC)ccc4[nH]2)C(=O)N3)CC1", "> 7.30"],
  ["CCN1CCC(Nc2ccc3c(c2)/C(=C(\\c2ccc(C(F)(F)F)c(F)c2)c2nc(C)c[nH]2)C(=O)N3)CC1", "> 7.30"],
  ["COCCN1CCC(Nc2ccc3c(c2)/C(=C(\\c2ccccc2)c2ncc[nH]2)C(=O)N3)CC1", "> 7.30"],
  ["CCN1CCC(Nc2ccc3c(c2)/C(=C(\\c2cccc(F)c2)c2ncn[nH]2)C(=O)N3)CC1", "< 5.30"],
  ["CCN1CCC(Nc2ccc3c(c2)/C(=C(\\c2cccc(C#N)c2)c2nc4ccccc4[nH]2)C(=O)N3)CC1", "6.30 to 7.30"],
  ["CCN1CCC(Nc2ccc3c(c2)/C(=C(\\c2ccc(N)cc2)c2nc4ccccc4[nH]2)C(=O)N3)CC1", "> 7.30"],
  ["COCCN1CCC(Nc2ccc3c(c2)/C(=C(\\c2ccc(C)c(F)c2)c2ncc[nH]2)C(=O)N3)CC1", "> 7.30"],
  ["COCCN1CCC(Nc2ccc3c(c2)/C(=C(\\c2ccccc2)c2nc4cc(Cl)ccc4[nH]2)C(=O)N3)CC1", "6.30 to 7.30"],
  ["CCN1CCC(Nc2ccc3c(c2)/C(=C(\\c2ccc(F)c(F)c2)c2nc(C)c[nH]2)C(=O)N3)CC1", "> 7.30"],
  ["CCN1CCC(Nc2ccc3c(c2)/C(=C(\\c2ccc(C(F)(F)F)c(F)c2)c2ncc[nH]2)C(=O)N3)CC1", "> 7.30"]
]}

---

assaySystem: KDR (baculovirus expressed human KDR kinase domain D807-V1356) (Homo sapiens, UniProt P35968)
Sequence (P35968 807-1356): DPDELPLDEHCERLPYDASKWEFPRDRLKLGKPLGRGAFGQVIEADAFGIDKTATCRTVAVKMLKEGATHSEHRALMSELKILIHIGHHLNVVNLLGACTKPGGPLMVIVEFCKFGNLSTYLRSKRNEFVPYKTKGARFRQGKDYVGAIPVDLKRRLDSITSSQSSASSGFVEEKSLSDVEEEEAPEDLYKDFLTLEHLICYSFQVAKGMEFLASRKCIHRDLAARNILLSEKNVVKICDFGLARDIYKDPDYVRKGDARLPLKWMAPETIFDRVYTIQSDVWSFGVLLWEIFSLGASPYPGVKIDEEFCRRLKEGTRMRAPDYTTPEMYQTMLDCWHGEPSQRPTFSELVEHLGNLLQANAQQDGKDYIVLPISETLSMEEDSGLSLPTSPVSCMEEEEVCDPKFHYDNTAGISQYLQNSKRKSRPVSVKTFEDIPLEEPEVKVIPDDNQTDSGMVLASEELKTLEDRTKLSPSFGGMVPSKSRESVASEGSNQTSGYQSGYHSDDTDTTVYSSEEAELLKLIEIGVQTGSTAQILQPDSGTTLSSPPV
compounds and their reported IC50

{"columns": ["compound", "IC50"],
 "data": [
  ["CCN1CCC(Oc2ccc3c(c2)/C(=C(\\c2cc(F)cc(F)c2)c2nc4ccccc4[nH]2)C(=O)N3)CC1", "< 0.05 µM"],
  ["O=C1Nc2ccc(NC3CC4CCC(C3)N4)cc2/C1=C(\\c1ccccc1)c1nc2ccccc2[nH]1 (stereo not drawn)", "0.05 to 0.5 µM"],
  ["COCCN1CCC(Nc2ccc3c(c2)/C(=C(\\c2ccc(F)c(F)c2)c2ncc[nH]2)C(=O)N3)CC1", "< 0.05 µM"],
  ["CCN1CCC(Nc2ccc3c(c2)/C(=C(\\c2cccc([N+](=O)[O-])c2)c2nc4ccccc4[nH]2)C(=O)N3)CC1", "< 0.05 µM"],
  ["CCN1CCC(Nc2ccc3c(c2)/C(=C(\\c2ccc(F)c(Cl)c2)c2ncc[nH]2)C(=O)N3)CC1", "< 0.05 µM"],
  ["COCCN1CCC(Nc2ccc3c(c2)/C(=C(\\c2ccccc2)c2nc4cc(Cl)ccc4[nH]2)C(=O)N3)CC1", "< 0.05 µM"],
  ["CCN1CCC(Nc2ccc3c(c2)/C(=C(\\c2ccc(F)cc2)c2nc4ccccc4[nH]2)C(=O)N3)CC1", "< 0.05 µM"],
  ["CCN1CCC(Nc2ccc3c(c2)/C(=C(\\c2ccccc2)c2nc(CCN4C(=O)c5ccccc5C4=O)c[nH]2)C(=O)N3)CC1", "< 0.05 µM"],
  ["CCN1CCC(Nc2ccc3c(c2)/C(=C(\\c2cccc(C(=N)N)c2)c2nc4ccccc4[nH]2)C(=O)N3)CC1", "0.5 to 5 µM"],
  ["CCN1CCC(Nc2ccc3c(c2)/C(=C(\\c2cccc(N)c2)c2nc4ccccc4[nH]2)C(=O)N3)CC1", "< 0.05 µM"],
  ["CCN1CCC(Nc2ccc3c(c2)/C(=C(\\c2ccc(OC)cc2)c2ncc[nH]2)C(=O)N3)CC1", "< 0.05 µM"],
  ["COCCN1CCC(Nc2ccc3c(c2)/C(=C(\\c2cccc(F)c2)c2ncc[nH]2)C(=O)N3)CC1", "< 0.05 µM"],
  ["CCN1CCC(Nc2ccc3c(c2)/C(=C(\\c2cccc(C(F)(F)F)c2)c2ncc[nH]2)C(=O)N3)CC1", "< 0.05 µM"],
  ["CCN1CCC(Nc2ccc3c(c2)/C(=C(\\c2ccc([N+](=O)[O-])cc2)c2nc4ccccc4[nH]2)C(=O)N3)CC1", "< 0.05 µM"],
  ["COCCN1CCC(Nc2ccc3c(c2)/C(=C(\\c2cccc(F)c2)c2ncn[nH]2)C(=O)N3)CC1", "0.05 to 0.5 µM"]
]}

---

assaySystem: EGFR (Homo sapiens)
Sequence (P00533 25-1210, species assumed): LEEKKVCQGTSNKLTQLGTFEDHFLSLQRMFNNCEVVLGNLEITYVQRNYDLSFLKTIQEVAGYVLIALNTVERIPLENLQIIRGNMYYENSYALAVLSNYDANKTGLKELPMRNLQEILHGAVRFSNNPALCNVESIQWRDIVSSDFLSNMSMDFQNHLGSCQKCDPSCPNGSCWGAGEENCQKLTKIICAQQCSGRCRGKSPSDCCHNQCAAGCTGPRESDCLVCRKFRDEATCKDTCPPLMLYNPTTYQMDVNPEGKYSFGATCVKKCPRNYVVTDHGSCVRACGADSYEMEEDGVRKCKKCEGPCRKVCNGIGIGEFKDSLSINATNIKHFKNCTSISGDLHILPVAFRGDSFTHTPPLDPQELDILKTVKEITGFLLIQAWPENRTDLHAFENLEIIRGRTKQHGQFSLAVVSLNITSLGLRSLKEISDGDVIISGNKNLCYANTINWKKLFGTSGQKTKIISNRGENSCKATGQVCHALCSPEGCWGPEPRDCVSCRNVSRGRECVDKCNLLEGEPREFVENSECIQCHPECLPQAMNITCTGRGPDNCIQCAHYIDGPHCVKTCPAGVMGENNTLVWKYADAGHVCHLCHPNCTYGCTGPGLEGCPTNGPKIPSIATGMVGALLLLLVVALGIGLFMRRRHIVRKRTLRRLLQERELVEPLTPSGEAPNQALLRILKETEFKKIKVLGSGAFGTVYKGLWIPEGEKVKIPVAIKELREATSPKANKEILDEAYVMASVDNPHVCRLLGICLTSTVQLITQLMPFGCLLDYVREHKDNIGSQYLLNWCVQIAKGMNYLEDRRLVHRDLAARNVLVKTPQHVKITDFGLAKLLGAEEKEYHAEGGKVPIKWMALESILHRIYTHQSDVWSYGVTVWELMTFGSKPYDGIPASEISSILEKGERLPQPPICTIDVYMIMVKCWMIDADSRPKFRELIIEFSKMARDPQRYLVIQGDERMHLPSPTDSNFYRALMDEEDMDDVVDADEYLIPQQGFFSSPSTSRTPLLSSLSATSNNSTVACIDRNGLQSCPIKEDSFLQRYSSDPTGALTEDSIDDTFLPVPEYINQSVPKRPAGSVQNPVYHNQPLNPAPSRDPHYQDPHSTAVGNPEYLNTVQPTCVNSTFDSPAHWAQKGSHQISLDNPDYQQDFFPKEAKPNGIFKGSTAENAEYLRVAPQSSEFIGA

{"columns": ["compound", "assaySystem", "IC50"],
 "data": [
  ["CN(C)CCN1CCC(Nc2ccc3c(c2)/C(=C(\\c2ccccc2)c2nc4ccccc4[nH]2)C(=O)N3)CC1", "EGFR (Homo sapiens)", "500 to 5000 nM"],
  ["CCN1CCC(Nc2ccc3c(c2)/C(=C(/c2cc(F)cc(F)c2)c2nc4cc(F)ccc4[nH]2)C(=O)N3)CC1", "EGFR (Homo sapiens)", "> 5000 nM"],
  ["O=C1Nc2ccc(NC3CCN(CCN4CCCCC4)CC3)cc2/C1=C(\\c1cccc(F)c1)c1ncc[nH]1", "EGFR (Homo sapiens)", "> 5000 nM"],
  ["CCN1CCC(Nc2ccc3c(c2)/C(=C(/c2ncc[nH]2)c2cccc(F)c2F)C(=O)N3)CC1", "EGFR (Homo sapiens)", "50 to 500 nM"],
  ["CCN1CCC(Nc2ccc3c(c2)/C(=C(\\c2ccc(F)c(F)c2)c2ncc[nH]2)C(=O)N3)CC1", "EGFR (Homo sapiens)", "500 to 5000 nM"],
  ["COCCN1CCC(Oc2ccc3c(c2)/C(=C(\\c2cccc(Cl)c2)c2nc4ccccc4[nH]2)C(=O)N3)CC1", "EGFR (Homo sapiens)", "50 to 500 nM"],
  ["CCN1CCC(Nc2ccc3c(c2)/C(=C(\\c2ccc(C(F)(F)F)cc2)c2nc(C)c[nH]2)C(=O)N3)CC1", "EGFR (Homo sapiens)", "50 to 500 nM"],
  ["CS(=O)(=O)N1CCC(Nc2ccc3c(c2)/C(=C(\\c2cccc(F)c2)c2ncc[nH]2)C(=O)N3)CC1", "EGFR (Homo sapiens)", "> 5000 nM"],
  ["CCN1CCC(Nc2ccc3c(c2)/C(=C(\\c2ccc(Cl)cc2)c2nc(C)c[nH]2)C(=O)N3)CC1", "EGFR (Homo sapiens)", "50 to 500 nM"],
  ["CCN1CCC(Nc2ccc3c(c2)/C(=C(\\c2cccc([N+](=O)[O-])c2)c2nc4ccccc4[nH]2)C(=O)N3)CC1", "EGFR (Homo sapiens)", "500 to 5000 nM"],
  ["CCOC(=O)c1[nH]c(/C(=C2\\C(=O)Nc3ccc(NC4CCN(CCOC)CC4)cc32)c2cccc(F)c2)nc1C", "EGFR (Homo sapiens)", "> 5000 nM"],
  ["COCCN1CCC(Nc2ccc3c(c2)/C(=C(\\c2cccc(F)c2)c2nc4ccccc4[nH]2)C(=O)N3)CC1", "EGFR (Homo sapiens)", "50 to 500 nM"],
  ["O=C1Nc2ccc(NC3CC4CCC(C3)N4)cc2/C1=C(\\c1ccccc1)c1nc2ccccc2[nH]1 (stereo not shown)", "EGFR (Homo sapiens)", "500 to 5000 nM"],
  ["COCCN1CCC(Nc2ccc3c(c2)/C(=C(\\c2ccc(Cl)cc2)c2ncc[nH]2)C(=O)N3)CC1", "EGFR (Homo sapiens)", "> 5000 nM"],
  ["CCN1CCC(Nc2ccc3c(c2)/C(=C(/c2nc(C)c[nH]2)c2cc(F)c(Cl)cc2Cl)C(=O)N3)CC1", "EGFR (Homo sapiens)", "50 to 500 nM"],
  ["COCCN1CCC(Nc2ccc3c(c2)/C(=C(\\c2ccc(C(F)(F)F)cc2)c2ncc[nH]2)C(=O)N3)CC1", "EGFR (Homo sapiens)", "> 5000 nM"],
  ["COCCN1CCC(Nc2ccc3c(c2)/C(=C(\\c2ccccc2)c2ncc[nH]2)C(=O)N3)CC1", "EGFR (Homo sapiens)", "> 5000 nM"],
  ["CCN1CCC(Nc2ccc3c(c2)/C(=C(\\c2cccc(C(F)(F)F)c2)c2nc(C)c[nH]2)C(=O)N3)CC1", "EGFR (Homo sapiens)", "500 to 5000 nM"],
  ["O=C1Nc2ccc(NC3CCN(CCN4CCCC4)CC3)cc2/C1=C(\\c1cccc(F)c1)c1ncc[nH]1", "EGFR (Homo sapiens)", "> 5000 nM"],
  ["COCCN1CCC(Nc2ccc3c(c2)/C(=C(\\c2ccccc2)c2nc4ccccc4[nH]2)C(=O)N3)CC1", "EGFR (Homo sapiens)", "50 to 500 nM"],
  ["COCCN1CCC(Nc2ccc3c(c2)/C(=C(\\c2cc(F)cc(F)c2)c2ncc[nH]2)C(=O)N3)CC1", "EGFR (Homo sapiens)", "50 to 500 nM"],
  ["COCCN1CCC(Nc2ccc3c(c2)/C(=C(\\c2ccc(C)cc2)c2nc(C)c[nH]2)C(=O)N3)CC1", "EGFR (Homo sapiens)", "50 to 500 nM"],
  ["CS(=O)(=O)N1CCC(Nc2ccc3c(c2)/C(=C(\\c2ccccc2)c2nc4ccccc4[nH]2)C(=O)N3)CC1", "EGFR (Homo sapiens)", "500 to 5000 nM"],
  ["COCCN1CCC(Nc2ccc3c(c2)/C(=C(\\c2ccc(F)c(Cl)c2)c2ncc[nH]2)C(=O)N3)CC1", "EGFR (Homo sapiens)", "> 5000 nM"],
  ["CCN1CCC(Nc2ccc3c(c2)/C(=C(\\c2ccc(C(F)(F)F)c(F)c2)c2ncc[nH]2)C(=O)N3)CC1", "EGFR (Homo sapiens)", "50 to 500 nM"]
]}
